test.name: Pharmacokinetics assay in male CD-1 mice (plasma, LC-MS/MS, non-compartmental analysis)
Type: in vivo
recorded.conditions: male, CD-1, mouse, plasma, po, 10 mg/kg, PO 10.0 mg/kg, mean, read-out: MRT0-last
quantity.kind: MRT last (h)
The reply should be a number in h, with the unit left off.

**Q:** State its MRT last for this compound: COc1cc(OC)cc(N(CCNC(C)C)c2ccc3nnc(-c4cnn(C)c4)cc3c2)c1
**A:** 5.13

----------
test.name: Pharmacokinetics assay in male CD-1 mice (plasma, LC-MS/MS, non-compartmental analysis)
Assay type: in vivo
recorded.conditions: male, CD-1, mouse, plasma, iv, 1 mg/kg, IV 1.00 mg/kg, 24.0 h, mean
quantity.kind: concentration at 24 h (ng/mL)
The reply should be a number in ng/mL, with the unit left off.

**Q:** State its concentration at 24 h for this compound: COc1cc(OC)cc(N(CCNC(C)C)c2ccc3nnc(-c4cnn(C)c4)cc3c2)c1
**A:** 1.79

----------
assay.target: FGFR1 (Homo sapiens (Human), UniProt P11362)
Sequence (P11362 22-822): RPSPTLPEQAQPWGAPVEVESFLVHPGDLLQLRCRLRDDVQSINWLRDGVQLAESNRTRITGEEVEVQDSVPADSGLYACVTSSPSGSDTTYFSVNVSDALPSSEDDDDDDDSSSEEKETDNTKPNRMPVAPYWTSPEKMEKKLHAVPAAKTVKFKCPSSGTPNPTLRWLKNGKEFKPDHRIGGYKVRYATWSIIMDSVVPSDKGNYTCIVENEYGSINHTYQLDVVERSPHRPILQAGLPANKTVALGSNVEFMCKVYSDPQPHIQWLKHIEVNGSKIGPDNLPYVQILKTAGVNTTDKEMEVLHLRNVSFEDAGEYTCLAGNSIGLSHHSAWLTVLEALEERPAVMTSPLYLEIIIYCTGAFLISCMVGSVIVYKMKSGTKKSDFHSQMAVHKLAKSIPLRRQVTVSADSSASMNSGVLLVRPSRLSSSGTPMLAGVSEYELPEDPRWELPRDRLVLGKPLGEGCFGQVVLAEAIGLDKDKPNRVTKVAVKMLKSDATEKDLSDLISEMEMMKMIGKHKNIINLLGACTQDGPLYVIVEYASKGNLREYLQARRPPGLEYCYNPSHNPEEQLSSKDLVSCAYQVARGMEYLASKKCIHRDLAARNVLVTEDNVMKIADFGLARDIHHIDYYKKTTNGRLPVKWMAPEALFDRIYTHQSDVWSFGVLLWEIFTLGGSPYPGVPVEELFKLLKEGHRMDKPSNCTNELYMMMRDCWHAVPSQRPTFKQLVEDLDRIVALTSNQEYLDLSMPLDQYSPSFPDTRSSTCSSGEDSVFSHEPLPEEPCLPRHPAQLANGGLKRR
test.name: RBC NanoBRET Assay for Target Engagement in HEK293 cells transfected with FGFR1-NanoLuc Fusion vector
Assay type: cell-based
recorded.conditions: 1 hour, tracer K5 1 μM
Please respond with reported pIC50 for every item in the list.
Keep in mind that pIC50 stands for -log10 of concentration in molar terms.

**Q:** // fetch pIC50; item: COc1cc(OC)cc(N(CCNC(C)C)c2ccc3nnc(-c4cnn(C)c4)cc3c2)c1 ; system: FGFR1 (Homo sapiens (Human), UniProt P11362)
**A:** 8.02

**Q:** // fetch pIC50; item: CNC(=O)c1ccccc1Nc1nc(Nc2ccc(N3CCNCC3)cc2)ncc1Cl [CTx-0294885, reference compound] ; system: FGFR1 (Homo sapiens (Human), UniProt P11362)
**A:** 7.46

----------
test.name: Pharmacokinetics assay in male CD-1 mice (plasma, LC-MS/MS, non-compartmental analysis)
Format: in vivo
recorded.conditions: male, CD-1, mouse, plasma, iv, 1 mg/kg, IV 1.00 mg/kg, 0.250 h, mean
quantity.kind: concentration at 0.25 h (ng/mL)
The reply should be a number in ng/mL, with the unit left off.

**Q:** State its concentration at 0.25 h for this compound: COc1cc(OC)cc(N(CCNC(C)C)c2ccc3nnc(-c4cnn(C)c4)cc3c2)c1
**A:** 211

----------
test.name: Pharmacokinetics assay in male CD-1 mice (plasma, LC-MS/MS, non-compartmental analysis)
Type: in vivo
recorded.conditions: male, CD-1, mouse, plasma, po, 10 mg/kg, PO 10.0 mg/kg, 2.00 h, mean
quantity.kind: concentration at 2 h
Don't forget the unit after the value.

**Q:** State its concentration at 2 h for this molecule: COc1cc(OC)cc(N(CCNC(C)C)c2ccc3nnc(-c4cnn(C)c4)cc3c2)c1
**A:** 44.4 ng/mL

----------
test.name: Pharmacokinetics assay in male CD-1 mice (plasma, LC-MS/MS, non-compartmental analysis)
Type: in vivo
recorded.conditions: male, CD-1, mouse, plasma, iv, 1 mg/kg, IV 1.00 mg/kg, 8.00 h, mean
quantity.kind: concentration at 8 h
Don't forget the unit after the value.

**Q:** State its concentration at 8 h for this compound: COc1cc(OC)cc(N(CCNC(C)C)c2ccc3nnc(-c4cnn(C)c4)cc3c2)c1
**A:** 1.6 ng/mL

----------
test.name: Pharmacokinetics assay in male CD-1 mice (plasma, LC-MS/MS, non-compartmental analysis)
Assay type: in vivo
recorded.conditions: male, CD-1, plasma; PO 10.0 mg/kg, mouse, individual mice M10-M12
Description: Pharmacokinetics Assay. A pharmacokinetics assay of Example 1 was performed by WuXi AppTec Inc., 6 Cedarbrook Drive, Cranbury, NJ 08512 USA. This study was conducted in 6 to 8-week-old male CD-1 mice (Hilltop Laboratories). Animals were group housed during acclimation and throughout the study. […] Temperature, relative humidity, and lighting were monitored by PointView Environmental Monitoring System. […] The diet lot number and specifications were recorded in study notebook and archived at WuXi AppTec. […]
quantity.kind: Tmax (min)
The reply should be a number in min, with the unit left off.

**Q:** State its Tmax for this molecule: COc1cc(OC)cc(N(CCNC(C)C)c2ccc3nnc(-c4cnn(C)c4)cc3c2)c1
**A:** 30

----------
test.name: Pharmacokinetics assay in male CD-1 mice (plasma, LC-MS/MS, non-compartmental analysis)
Assay type: in vivo
recorded.conditions: male, CD-1, mouse, plasma, po, 10 mg/kg, PO 10.0 mg/kg, 0.167 h, mean
quantity.kind: concentration at 0.167 h (ng/mL)
The reply should be a number in ng/mL, with the unit left off.

**Q:** State its concentration at 0.167 h for this molecule: COc1cc(OC)cc(N(CCNC(C)C)c2ccc3nnc(-c4cnn(C)c4)cc3c2)c1
**A:** 79.1

----------
test.name: Pharmacokinetics assay in male CD-1 mice (plasma, LC-MS/MS, non-compartmental analysis)
Assay type: in vivo
recorded.conditions: male, CD-1, mouse, plasma, iv, 1 mg/kg, IV 1.00 mg/kg, individual mice M7-M9, read-out: C0
quantity.kind: C0
Don't forget the unit after the value.

**Q:** State its C0 for this molecule: COc1cc(OC)cc(N(CCNC(C)C)c2ccc3nnc(-c4cnn(C)c4)cc3c2)c1 [Example 1]
**A:** 448 ng/mL

Values from patent US20240002365A1
